tested on: Hepatitis B virus; experiment: Antiviral activity against Hepatitis B virus infected HepG2(2.2.15) cells assessed as inhibition of viral cytoplasmic DNA synthesis by real-time PCR; format: functional, organism-based
pIC50: −log10 of the molar value.
Result Type: pIC50

> print(dat)
                                    molecule    measured.target  result.type  measured
 1  COC(=O)[C@H](CC(C)C)N1CCCOP1(=O)COCCn1cnc2c(N)ncnc21.O=C(O)/C=C/C(=O)O (stereo partly drawn)  Hepatitis B virus        pIC50      6.49
 2  COC(=O)[C@H](C)N1CCCO[P@@]1(=O)COCCn1cnc2c(N)ncnc21.O=C(O)/C=C/C(=O)O  Hepatitis B virus        pIC50      6.04
 3  CC(C)(C)C(=O)OCOP(=O)(COCCn1cnc2c(N)ncnc21)OCOC(=O)C(C)(C)C [ADEFOVIR DIPIVOXIL]  Hepatitis B virus        pIC50      6.48
 4  CCOC(=O)[C@H](C(C)C)N1CCCO[P@]1(=O)COCCn1cnc2c(N)ncnc21.O=C(O)/C=C/C(=O)O  Hepatitis B virus        pIC50      5.52
 5  CCOC(=O)[C@H](C(C)C)N1CCCO[P@@]1(=O)COCCn1cnc2c(N)ncnc21.O=C(O)/C=C/C(=O)O  Hepatitis B virus        pIC50      4.30
 6  CC(C)OC(=O)[C@H](C(C)C)N1CCCO[P@]1(=O)COCCn1cnc2c(N)ncnc21.O=C(O)/C=C/C(=O)O  Hepatitis B virus        pIC50      5.24
 7  COC(=O)[C@H](Cc1ccccc1)N1CCCOP1(=O)COCCn1cnc2c(N)ncnc21.O=C(O)/C=C/C(=O)O (stereo partly drawn)  Hepatitis B virus        pIC50      5.58
 8  CCOC(=O)[C@@H](C(C)C)N1CCCO[P@]1(=O)COCCn1cnc2c(N)ncnc21.O=C(O)/C=C/C(=O)O  Hepatitis B virus        pIC50      4.30
 9  CCOC(=O)[C@@H](C(C)C)N1CCCO[P@@]1(=O)COCCn1cnc2c(N)ncnc21.O=C(O)/C=C/C(=O)O  Hepatitis B virus        pIC50      4.30
10  COC(=O)[C@H](C(C)C)N1CCCO[P@]1(=O)COCCn1cnc2c(N)ncnc21.O=C(O)/C=C/C(=O)O  Hepatitis B virus        pIC50      6.92
11  COC(=O)CN1CCCOP1(=O)COCCn1cnc2c(N)ncnc21.O=C(O)/C=C/C(=O)O (racemic)  Hepatitis B virus        pIC50      6.06
12  CCC(C)[C@@H](C(=O)OC)N1CCCOP1(=O)COCCn1cnc2c(N)ncnc21.O=C(O)/C=C/C(=O)O (stereo partly drawn)  Hepatitis B virus        pIC50      5.66
13  COC(=O)[C@H](C)N1CCCO[P@]1(=O)COCCn1cnc2c(N)ncnc21.O=C(O)/C=C/C(=O)O  Hepatitis B virus        pIC50      6.29

----------
half-life for assorted molecules
assay: Metabolic stability in human liver microsomes assessed as half life; format: ADME, Microsome
Result Type: half-life (h)

> print(dat)
                         structure.notation  result.type  value.comparator  measured
1  COC(=O)[C@H](C(C)C)N1CCCO[P@@]1(=O)COCCn1cnc2c(N)ncnc21.O=C(O)/C=C/C(=O)O    half-life                 >         6
2  COC(=O)[C@H](C(C)C)N1CCCO[P@]1(=O)COCCn1cnc2c(N)ncnc21.O=C(O)/C=C/C(=O)O    half-life                 =       3.6

----------
test: Cytotoxicity against human HepG2(2.2.15) cells; assay type: cell-based
Recorded CC50 for the following compounds
Result Type: CC50 (µM)

> print(dat)
                                    compound  result.type   u  measured
 1  CCC(C)[C@@H](C(=O)OC)N1CCCOP1(=O)COCCn1cnc2c(N)ncnc21.O=C(O)/C=C/C(=O)O (stereo partly drawn)         CC50  µM       648
 2  COC(=O)CN1CCCOP1(=O)COCCn1cnc2c(N)ncnc21.O=C(O)/C=C/C(=O)O (racemic)         CC50  µM       602
 3  CCOC(=O)[C@H](C(C)C)N1CCCO[P@@]1(=O)COCCn1cnc2c(N)ncnc21.O=C(O)/C=C/C(=O)O         CC50  µM       468
 4  COC(=O)[C@H](C)N1CCCO[P@]1(=O)COCCn1cnc2c(N)ncnc21.O=C(O)/C=C/C(=O)O         CC50  µM       650
 5  CCOC(=O)[C@@H](C(C)C)N1CCCO[P@@]1(=O)COCCn1cnc2c(N)ncnc21.O=C(O)/C=C/C(=O)O         CC50  µM       439
 6  COC(=O)[C@H](Cc1ccccc1)N1CCCOP1(=O)COCCn1cnc2c(N)ncnc21.O=C(O)/C=C/C(=O)O (stereo partly drawn)         CC50  µM       726
 7  COC(=O)[C@H](C)N1CCCO[P@@]1(=O)COCCn1cnc2c(N)ncnc21.O=C(O)/C=C/C(=O)O         CC50  µM       590
 8  COC(=O)[C@H](CC(C)C)N1CCCOP1(=O)COCCn1cnc2c(N)ncnc21.O=C(O)/C=C/C(=O)O (stereo partly drawn)         CC50  µM       222
 9  CCOC(=O)[C@@H](C(C)C)N1CCCO[P@]1(=O)COCCn1cnc2c(N)ncnc21.O=C(O)/C=C/C(=O)O         CC50  µM       400
10  CC(C)OC(=O)[C@H](C(C)C)N1CCCO[P@]1(=O)COCCn1cnc2c(N)ncnc21.O=C(O)/C=C/C(=O)O         CC50  µM       592
11  CC(C)(C)C(=O)OCOP(=O)(COCCn1cnc2c(N)ncnc21)OCOC(=O)C(C)(C)C [ADEFOVIR DIPIVOXIL]         CC50  µM       555
12  COC(=O)[C@H](C(C)C)N1CCCO[P@]1(=O)COCCn1cnc2c(N)ncnc21.O=C(O)/C=C/C(=O)O         CC50  µM       577
13  CCOC(=O)[C@H](C(C)C)N1CCCO[P@]1(=O)COCCn1cnc2c(N)ncnc21.O=C(O)/C=C/C(=O)O         CC50  µM       560
